# Test system: SK-MEL-5 melanoma
# measurement notes: NCI tumour cell line growth inhibition, 48 h
assay readout: TGI (µM)
Give a bare numeral; the unit µM is implied.

IN: # get_value(readout='TGI', item= CC1=C(C(=O)Nc2ccc(Cl)c(C(=O)OC(C)C)c2)SCCO1 )
OUT: 81.4

IN: Queued: N=c1c2c(=N)n3c(nc2nc2n1-c1ccccc1Sc1ccccc1-2)sc1cc(Cl)ccc13
OUT: 4

IN: Next molecule up: COc1cc(-c2nn(-c3cccc(NC(=O)c4ccc(Cl)c(C(F)(F)F)c4)c3)cc2-c2ccncc2)ccc1Cl
OUT: 8.69

IN: Next: O=C1C(CN2CCOCC2)CCCC1CN1CCOCC1 (centres undefined)
OUT: 23.9
